experiment: soluble on expression in E. coli; label from the status in PepcDB or PDB records

# RESIDUE_SEQUENCE, soluble on expression in E. coli
data = [
    ("GPLGSTRAKTQEEIKREEEQAIDEVLKIEFLELALGYQLISLADMKQGGDLLERIRGIRKKIASDYGFLMPQIRIRDNLQLPPTHYEIKLKGIVIGEGMVMPDKFLAMNTGFVNREIEGIPTKEPAFGMDALWIDAKNKEEAIIQGYTIIDPSTVIATHTSELVKKYAEDFITKDEVKSLLERLAKDYPTIVEESKKIPTGAIRSVLQALLHEKIPIKDMLTILETITDIAPLVQNDVNILTEQVRARLSRVITNAFKSEDGRLKFLTFSTDSEQFLLNKLRENGTSKSLLLNVGELQKLIEGVSEEAMKVLQKGIAPVILIVEPNLRKALSNQMEQARIDVVVLSHAELDPNSNFEALGTIHIN", "soluble"),
    ("MTKSYDVWWQKGQESDDDMARDHQEAWERTIEMLDTSDIKGKTILDVGCNQGGFLRKLYDTTPFKEGVGIDLARLSLEKAETLKGERPLTYYLTDKPQETNRTFDTAVSTSVLYLIEDIPQHAQDLKEVLKPGGVYYASFADLTNNPSRQFMDDTINQYGATPSQNHSLKHIVDSFVDAGFEVAVMKEPVPDVIDLTHYSDFYLSPNDYLQTLYEESFLIKASVKEGIGKLEHHHHHH", "soluble"),
]

----------
experiment: soluble on expression in E. coli; label from the status in PepcDB or PDB records
MEASURE_NAME: soluble on expression in E. coli

# RESIDUE_SEQUENCE, REPORTED
records = [
    ("MLCAVYKSSRKADTYLFVNKRDCFDDVPQALLDMFGVPQLVMVFPIVKRESLGIADINKVRAALEEKGFYLQIPPPQVNLLAEHRENLGIKD", "soluble"),
    ("MMKEQNIPQDSLIAGYLPADYCDSFSRNVVSEKAITSDEFFDMAFNHSPGWVNGLMKLRNAIVKPLGLEVGMRFADTICEQNAQEVVFGMPDKHLTFHASLWCGEKEPGGQTFTITTVVKFNNRLGRLYFFFIRPFHKVIIRSMLKRVAKRLK", "not soluble"),
    ("SFHYQALPMRVSFEVGAVTKIGEELDRLGLSRALVLCTPEQKHLADLVMDHLGDRGAGIFDQARMHVPVETADRARDRARKLGADSCVVIGGGSSIGLGKAIALEHGLPIIAIPTTYAGSEMTPIWGLTRDGRKQTGRDAKVLPQSVIYDPQLTAT", "not soluble"),
    ("MGSDKIHHHHHHMNVAILGNQARAMVNFWSVFIARLQADGHTVVCIIPPGDAEGDAALTSMGVRVRHYPLDRKGLNPVRDVATFAALYRIFRQERPDRLFCFTIKPVIYGATAAALARVPGRVAMITGLGYMFEADTPVKRLLNRVAVLMYRAALACVHTVFFQNEEDRAVFTAKGIVPAGTEVAMSRGTGVALDHFAPAETVTAPVTFLLVGRLIEAKGLYEYAEAARMLKARHPEARFRVLGPPEQGLGSVPMETINQWHREGVIEYMGQTRDVRPFLREASVVVLPSWREGTPCSVMEGMSMARAAIVTDAPGCREVVEDGVNGFMVPLRSPEALAAAMERFIEDPSLVQRMGRAGRDLAEREFDAEKVAAHIMRVMRLDAAPRAGGNPQ", "not soluble"),
    ("MGSDKIHHHHHHMKIGVIQASTRTDLNQLLFEAVKQAAGNQHEIVNFGVFPQETENYSYVEVAIMISLLIETGAIDFMVSGCSSGQGMMMACNSLPGLQAGFIQTPQDAFLFGRINNGNVASLSLGLNFGWAGELNLQYALNELFHGEFGIGYPPEVAERKREEAQLLLTLNDITKKSFLEIIDQLDKALLFKILKRKDLTAYLFDYGSNSLLLERLQFFRN", "not soluble"),
    ("MLSVAGHRFASLATTPVLRMGLARCFSSVTGPFQCPPLPYVKNALEPHMSAETLTYHHDKHHQTYVDTLNSIAAENSTIASKTLEQIIKTETGKPFNQAAQVYNHTFFFNNLAPNGGGEPTGKIAELITRDFGSFEKFKEDFSAAAVGHFGSGWVWLIADDGKLKIVQGHDAGNPIRESKTPLMNIDVWEHAYYIDYRNARAQYVKNYWNLVNWDFVNDNVAKAGI", "soluble"),
    ("MGSDKIHHHHHHMTKHMTMKTPPIVSRQEWDAAREKMLVKEKATLRAKDALAAERRRMPWMEVDKAYVFEGPNGKASLLDLFEGRRQLIVYRAFFEPGVYGWPDHACRGCSLGADQVGHLAHLNARNTTLAYASRAPQADIVRLKARMGWEMPWYTITDSFDKDFGVDEWHGHNVFIHDGDRVFRTYLINSRGDEQMGTVWSYLDATPLGRQEIWEDSPEGYPQTPLYSWWNWHDNYEAGADKKWAEVAAAGEAAFRDKGE", "not soluble"),
]
